Recorded R.A. (relative activity), one value per entry.
- Test system: 3α-hydroxysteroid oxidase
- assay.procedure: Relative activities of the 3α-hydroxysteroid oxidase for various substrates
- Type: biochemical, Pseudomonas testosterone ATCC 11996
- condition.summary: substrate of the oxidase; R.A. of cholic acid being 100

Check out these entries, answers already filled in.
In [3]: df
Out[3]:
                                   compound  observed
0  C[C@H](CCC(=O)NCC(=O)O)[C@H]1CC[C@H]2[C@@H]3[C@H](O)C[C@@H]4C[C@H](O)CC[C@]4(C)[C@H]3C[C@H](O)[C@]12C [Glycocholic acid]       95%
1  C[C@]12CC[C@@H](O)C[C@@H]1CC[C@@H]1[C@@H]2CC[C@]2(C)C(=O)CC[C@@H]12 [5α-Androstan-3α-ol-17-one]        0%

Please look at the following compound next.
Which R.A. (relative activity) value is on record for C[C@H](CCC(=O)O)[C@H]1CC[C@H]2[C@@H]3[C@H](O)C[C@@H]4C[C@H](O)CC[C@]4(C)[C@H]3CC[C@]12C [Chenodeoxycholic acid] ?
89%
